Molecular target: AR protein in VCaP cells (Homo sapiens)
Construct: endogenous in cells; host or cells: VCaP cells
Sequence (P10275 whole entry): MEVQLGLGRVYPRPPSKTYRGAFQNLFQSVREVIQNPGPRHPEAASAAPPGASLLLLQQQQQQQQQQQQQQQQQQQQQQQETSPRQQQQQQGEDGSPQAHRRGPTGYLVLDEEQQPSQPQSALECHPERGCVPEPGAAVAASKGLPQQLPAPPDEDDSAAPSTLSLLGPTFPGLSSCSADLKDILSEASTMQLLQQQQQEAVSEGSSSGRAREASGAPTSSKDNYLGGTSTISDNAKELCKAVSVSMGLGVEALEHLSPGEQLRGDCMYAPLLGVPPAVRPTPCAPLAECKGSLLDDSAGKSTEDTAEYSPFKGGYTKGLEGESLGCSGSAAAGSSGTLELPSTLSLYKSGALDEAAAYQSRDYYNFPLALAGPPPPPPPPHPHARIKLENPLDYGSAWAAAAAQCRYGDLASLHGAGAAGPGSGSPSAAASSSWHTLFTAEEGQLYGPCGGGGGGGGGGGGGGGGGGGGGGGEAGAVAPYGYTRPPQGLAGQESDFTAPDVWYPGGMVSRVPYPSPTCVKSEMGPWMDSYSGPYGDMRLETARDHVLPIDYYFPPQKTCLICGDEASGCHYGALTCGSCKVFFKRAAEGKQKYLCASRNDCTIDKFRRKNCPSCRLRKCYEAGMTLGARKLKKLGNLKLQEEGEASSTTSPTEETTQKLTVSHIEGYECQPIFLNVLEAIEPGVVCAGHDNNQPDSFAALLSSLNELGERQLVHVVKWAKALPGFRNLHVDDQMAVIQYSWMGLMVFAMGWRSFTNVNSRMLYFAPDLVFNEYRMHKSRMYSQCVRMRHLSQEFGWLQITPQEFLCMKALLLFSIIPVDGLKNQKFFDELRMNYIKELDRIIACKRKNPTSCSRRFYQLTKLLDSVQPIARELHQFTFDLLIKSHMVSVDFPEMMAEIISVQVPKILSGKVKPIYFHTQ
Experiment: VCAP AR Degradation Assay (AR ELISA, 24 h)
Type: cell-based
Conditions: concentration of compound when AR level = 50% of DMSO control, read-out: DC50
readout.label: DC50

In the examples that follow, each entry is paired with its recorded DC50.
molecule: CCc1cc(N2C(=S)N(c3cnc(C#N)c(C(F)(F)F)c3)C(=O)C2(C)C)ccc1OCCC1(C)CCN(CC(=O)Nc2cccc(NC3CCC(=O)NC3=O)c2)CC1 (stereo not drawn) [Cmpd 61]
readout.label: DC50
result.value: < 100 nM
--
molecule: CCc1cc(N2C(=S)N(c3cnc(C#N)c(C(F)(F)F)c3)C(=O)C2(C)C)ccc1OCC1CCN(CC(=O)Nc2cccc(NC3CCC(=O)NC3=O)c2)CC1 (stereo not drawn) [Cmpd 80]
readout.label: DC50
result.value: < 100 nM

Shift focus to the following entry.
Entry CCc1cc(N2C(=S)N(c3cnc(C#N)c(C(F)(F)F)c3)C(=O)C23CCC3)ccc1OCCC1CCN(CC(=O)Nc2cccc(NC3CCC(=O)NC3=O)c2)C(C)(C)C1 (single isomer, unassigned) [Cmpd 54] , AR protein in VCaP cells (Homo sapiens) data, DC50 value: < 100 nM
